B1: mouse Toll-like receptor 3 (TLR3) extracellular domain (ECD), wild type [mouse] / itself (parent)
chain: TNQCTVRYNVADCSHLKLTHIPDDLPSNITVLNLTHNQLRRLPPTNFTRYSQLAILDAGFNSISKLEPELCQILPLLKVLNLQHNELSQISDQTFVFCTNLTELDLMSNSIHKIKSNPFKNQKNLIKLDLSHNGLSSTKLGTGVQLENLQELLLAKNKILALRSEELEFLGNSSLRKLDLSSNPLKEFSPGCFQTIGKLFALLLNNAQLNPHLTEKLCWELSNTSIQNLSLANNQLLATSESTFSGLKWTNLTQLDLSYNNLHDVGNGSFSYLPSLRYLSLEYNNIQRLSPRSFYGLSNLRYLSLKRAFTKQSVSLASHPNIDDFSFQWLKYLEYLNMDDNNIPSTKSNTFTGLVSLKYLSLSKTFTSLQTLTNETFVSLAHSPLLTLNLTKNHISKIANGTFSWLGQLRILDLGLNEIEQKLSGQEWRGLRNIFEIYLSYNKYLQLSTSSFALVPSLQRLMLRRVALKNVDISPSPFRPLRNLTILDLSNNNIANINEDLLEGLENLEILDFQHNNLARLWKRANPGGPVNFLKGLSHLHILNLESNGLDEIPVGVFKNLFELKSINLGLNNLNKLEPFIFDDQTSLRSLNLQKNLITSVEKDVFGPPFQNLNSLDMRFNPFDCTCESISWFVNWINQTHTNISELSTHYLCNTPHHYYGFPLKLFDTSSCKDSAPFEL

- Variants of: B1
- Protocol description: cryo-EM 2D classification (fraction of tetrameric TLR3 particles on 90 bp dsRNA)
- Condition notes: with itself; TLR3 0.2 mg/mL (~2.4 µM) with 3.6 molar amount of 90 bp dsRNA (0.5 mg/mL, ~8.6 µM); 25 mM MES-NaOH pH 5.3 and 0.2 M NaCl; on ice for 2–3 h; parent: 11; read off a plot
# binarize screen value: threshold 4% inclusive, high side true, low side false

Example results:
{"Variant identifier": "chain 1 E499K D500K E503K", "Classification": "false"}
{"Variant identifier": "chain 1 E499K D500K", "Classification": "false"}
{"Variant identifier": "chain 1 S91E Q93E K113E K115E N117E K120E N121E", "Classification": "false"}

stdin: Hi team, for chain 1 N498K E499K E503K , is the recorded screen value at or above 4%?
stdout: true

stdin: Another: chain 1 Q93E V96E K113E K115E N117E K120E N121E
stdout: false
